B1: TRIM63 (parent)
chain: FRCPTCRHEVIMDRHGVYGLQRNL

variants of: B1; assay: protein stability index of a GFP-peptide fusion (GPS, HEK-293T) (PSI 1-6); higher = more stable; settings: c terminus: a fixed tail appended;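 note: lentivirally expressed fusions sorted by FACS into six bins by GFP to DsRed ratio, PSI derived from sequencing read proportions per bin multiplied by bin number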
Listed variants paired with reported protein stability index
// return a plain number; no unit text

- variant.id: "V17K"
  protein stability index: 2.19
- variant.id: "C6E"
  protein stability index: 2.61
- variant.id: "I11E"
  protein stability index: 1.85

Query: For the variant shown here, Y18P , give the reported protein stability index.
Reply: 2.23

Query: For the variant shown here, N23F , give the reported protein stability index.
Reply: 2.02

Query: For the variant shown here, L24P , give the reported protein stability index.
Reply: 2.98

Query: For the variant shown here, V17C , give the reported protein stability index.
Reply: 2.47

Query: For the variant shown here, E9W , give the reported protein stability index.
Reply: 2.12

Query: For the variant shown here, M12V , give the reported protein stability index.
Reply: 2.98

Query: For the variant shown here, V10N , give the reported protein stability index.
Reply: 3.46

Query: For the variant shown here, E9Q , give the reported protein stability index.
Reply: 2.63
